- Assayed Target: hGYS1 enzyme (recombinant hGYS1/GN1 protein) (Homo sapiens (Human), UniProt P13807)
- Sequence (P13807 whole entry): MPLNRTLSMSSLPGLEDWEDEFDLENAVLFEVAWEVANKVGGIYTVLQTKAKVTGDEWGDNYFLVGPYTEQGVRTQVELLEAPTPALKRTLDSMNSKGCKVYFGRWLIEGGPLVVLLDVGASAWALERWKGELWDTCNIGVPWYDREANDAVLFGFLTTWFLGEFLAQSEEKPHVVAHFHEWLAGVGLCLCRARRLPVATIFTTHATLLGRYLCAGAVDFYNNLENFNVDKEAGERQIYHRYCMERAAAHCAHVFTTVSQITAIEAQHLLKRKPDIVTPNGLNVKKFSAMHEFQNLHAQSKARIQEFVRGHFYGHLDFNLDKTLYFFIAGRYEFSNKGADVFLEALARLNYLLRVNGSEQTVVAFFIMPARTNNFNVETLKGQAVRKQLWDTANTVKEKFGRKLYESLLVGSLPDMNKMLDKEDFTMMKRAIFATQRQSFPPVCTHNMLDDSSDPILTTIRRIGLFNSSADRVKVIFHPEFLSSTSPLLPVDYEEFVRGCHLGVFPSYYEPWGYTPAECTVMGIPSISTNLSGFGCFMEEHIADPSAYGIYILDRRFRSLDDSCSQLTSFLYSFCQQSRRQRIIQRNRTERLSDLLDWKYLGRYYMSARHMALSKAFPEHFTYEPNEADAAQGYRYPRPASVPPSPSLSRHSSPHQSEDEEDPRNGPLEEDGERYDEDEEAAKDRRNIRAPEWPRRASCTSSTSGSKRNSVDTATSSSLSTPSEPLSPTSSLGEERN
- Sequence (P46976 whole entry partner): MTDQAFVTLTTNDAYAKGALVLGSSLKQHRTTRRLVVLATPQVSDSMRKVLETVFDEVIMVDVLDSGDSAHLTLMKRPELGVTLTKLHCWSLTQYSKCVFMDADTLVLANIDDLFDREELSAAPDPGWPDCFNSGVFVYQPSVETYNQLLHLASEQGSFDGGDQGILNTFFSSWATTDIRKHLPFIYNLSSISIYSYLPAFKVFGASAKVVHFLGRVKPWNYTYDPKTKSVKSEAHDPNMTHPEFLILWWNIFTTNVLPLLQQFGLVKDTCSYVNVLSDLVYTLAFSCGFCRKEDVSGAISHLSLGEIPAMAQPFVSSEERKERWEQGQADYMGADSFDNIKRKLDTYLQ
- Assay Remarks: GYS1 coupled enzyme assay (PK/LDH)
- Experimental Setup: hGYS1/GN1 50 nM, UDP-Glucose 0.8 mM, G6P 1 mM; geometric mean of at least 2 runs
Parameter Measured: IC50 (nM)
The reply should contain only the number, in nM.

Specify reported IC50 for the molecule shown: Cc1ccc(CCC(=O)N2C[C@H](F)C[C@H]2C(=O)N[C@@H](c2ccccc2)c2ccc(C(C)C)cc2)cn1
73

Specify reported IC50 for the molecule shown: CC(C)c1ccc([C@@H](NC(=O)[C@@H]2C[C@@H](F)CN2C(=O)CNC(N)=O)c2ccccc2)nc1
62

Specify reported IC50 for the molecule shown: Cc1cn(CC(=O)N2C[C@H](F)C[C@H]2C(=O)N[C@@H](c2ccccc2)c2ccc(C(C)C)c(F)c2)c(=O)[nH]c1=O
5

Specify reported IC50 for the molecule shown: CC(=O)N1C[C@H](F)C[C@H]1C(=O)N[C@@H](c1ccccc1)c1ccc(C2CC2)c(F)c1
697

Specify reported IC50 for the molecule shown: CC(C)c1ccc([C@@H](NC(=O)[C@@H]2C[C@@H](F)CN2C(=O)Cc2ccc(=O)[nH]c2)c2ccccc2)nc1F
7

Specify reported IC50 for the molecule shown: Cn1c(CC(=O)N2C[C@H](F)C[C@H]2C(=O)N[C@@H](c2ccccc2)c2ccc(C3CC3)c(F)c2)noc1=O
661

Specify reported IC50 for the molecule shown: O=C(N[C@@H](c1ccccc1)c1ccc(C2CC2)c(F)c1)[C@@H]1C[C@@H](F)CN1C(=O)CNC(=O)N1CC(C(F)(F)F)C1
86

====

- Assayed Target: hGYS2 enzyme (recombinant hGYS2/GN1 protein) (Homo sapiens (Human), UniProt P54840)
- Sequence (P54840 whole entry, one chain of several): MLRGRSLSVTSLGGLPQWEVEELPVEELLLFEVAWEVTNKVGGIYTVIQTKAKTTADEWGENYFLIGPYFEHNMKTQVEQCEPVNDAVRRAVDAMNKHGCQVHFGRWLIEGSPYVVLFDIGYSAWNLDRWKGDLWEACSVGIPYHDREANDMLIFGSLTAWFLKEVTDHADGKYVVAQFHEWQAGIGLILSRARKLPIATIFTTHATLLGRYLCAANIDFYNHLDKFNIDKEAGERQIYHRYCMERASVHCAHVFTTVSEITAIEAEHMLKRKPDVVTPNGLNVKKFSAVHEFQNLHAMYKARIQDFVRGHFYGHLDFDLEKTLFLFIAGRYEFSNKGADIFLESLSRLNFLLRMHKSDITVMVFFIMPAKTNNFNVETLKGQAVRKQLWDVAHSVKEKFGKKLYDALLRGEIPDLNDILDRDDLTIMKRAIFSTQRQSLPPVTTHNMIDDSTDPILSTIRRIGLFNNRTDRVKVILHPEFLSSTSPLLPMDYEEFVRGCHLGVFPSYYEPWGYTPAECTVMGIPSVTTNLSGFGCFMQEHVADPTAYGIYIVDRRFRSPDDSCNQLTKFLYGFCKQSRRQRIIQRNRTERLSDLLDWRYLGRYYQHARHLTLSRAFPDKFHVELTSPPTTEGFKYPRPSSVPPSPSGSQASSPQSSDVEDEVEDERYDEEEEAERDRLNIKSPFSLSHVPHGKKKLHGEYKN
- Assay Remarks: GYS2 coupled enzyme assay (PK/LDH)
- Experimental Setup: geometric mean of at least 2 assay runs on separate days, read-out: Avg_IC50
Parameter Measured: IC50

Specify reported IC50 for the molecule shown: CC(C)c1ccc([C@@H](NC(=O)[C@@H]2C[C@@H](F)CN2C(=O)Cc2ccc(=O)[nH]c2)c2ccccc2)nc1F [Compound 791]
> 100 µM

Specify reported IC50 for the molecule shown: CC(C)c1ccc([C@@H](NC(=O)[C@@H]2C[C@@H](F)CN2C(=O)Cn2ccc(C(F)(F)F)n2)c2ccccc2)nc1F [Compound 790]
> 100 µM

Specify reported IC50 for the molecule shown: Cc1nn(CC(=O)N2C[C@H](F)C[C@H]2C(=O)N[C@@H](c2ccccc2)c2ccc(C3CC(F)(F)C3)c(F)n2)c(=O)o1 [Compound 502]
> 100 µM

Specify reported IC50 for the molecule shown: CN(C)c1cnn(CC(=O)N2C[C@H](F)C[C@H]2C(=O)N[C@@H](c2ccccc2)c2ccc(C3CC3)c(F)c2)n1 [Compound 483]
> 100 µM

Specify reported IC50 for the molecule shown: Cc1cc([C@@H](NC(=O)[C@@H]2C[C@@H](F)CN2C(=O)Cc2cnn[nH]2)c2ccccc2)ccc1C(C)C [Compound 670]
> 100 µM

Specify reported IC50 for the molecule shown: CC1(c2ccc([C@@H](NC(=O)[C@@H]3C[C@@H](F)CN3C(=O)CC3C(=O)Nc4ccccc43)c3ccccc3)cc2F)CC1 (stereo partly drawn) [Compound 581]
> 100 µM
